B1: HDV Ribozyme (parent)
chain: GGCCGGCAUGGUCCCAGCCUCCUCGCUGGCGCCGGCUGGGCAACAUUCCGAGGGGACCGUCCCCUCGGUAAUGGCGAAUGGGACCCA

variants of: B1; test: self-cleavage, relative activity (ratio to wild type); higher = more cleavage; co-transcriptional
Overview of recorded self-cleavage for various variants
Please respond with just the number, no unit label.

- GGCCGGCAUGGUCGCAGCCUCCUCGCUGGCGCCGGCUGGGCAACAUUCCGAGGGGACCGUCCCCUCGGUAAUGGCGAAUGGGACCUA [C14G C86U]: 1.07
- GGCCGGCAUGGUCCCAGCCUCCUCGCUGGCGCCGGCUGGGCAACAUUCCGAGGGGACCGUCCCAUCGGUAAUGGCGAAUGAGACCCA [C64A G81A]: 0.386
- GGCCGGCGUGGUCCCAGCCUCCUCGCUGGCGCCGGCUGGGCCACAUUCCGAGGGGACCGUCCCCUCGGUAAUGGCGAAUGGGACCCA [A8G A42C]: 0.0573
- GGCCGGCAUGGUCCCAGCCUCCUCGCUGGCACCGGCUGGGCAACAUUCCGAGGGGACCGUCCCCUCGGUAAUCGCGAAUGGGACCCA [G31A G73C]: 0.107
- GGCCGGCAUGGUCCCAGCCUCCUCGCUGGCGCUGGCUGGGCAACAUUCCGAGGGGACCGUCCCCUCGGUAAUGUCGAAUGGGACCCA [C33U G74U]: 0.41
- GGCCGGCAUGGUCCCAGCCUCCUCGCUGGCGCCGGCUGGGUAACAUUCCGAGGGGAGCGUCCCCUCGGUAAUGGCGAAUGGGACCCA [C41U C57G]: 1.09
- GGCCGGCAUGGUCCCAGCCUCCUCGCUGGCGCCGGCUGGGCAACAUUCCGCGGGGACCGUCCCCUCGGUAAUGGAGAAUGGGACCCA [A51C C75A]: 0.0449
- GGCGGGCAUGGUCCCAGCCUCCUCGCUGGCGCCGGCUGGGCAACAUUCCGAGGGGGCCGUCCCCUCGGUAAUGGCGAAUGGGACCCA [C4G A56G]: 0.249

Request: Which self-cleavage is listed for GGCCGGCAUGGUCCCAGCCUCCUCGCUGGCGCCGGCUGGGCAACAUUCCGAGGGGACCGUCCCUUCGGUAAUGGCGAUUGGGACCCA [C64U A78U] ?
Result: 0.297

Request: Field request: self-cleavage | item: AGCCGGCAUGGUCCCAGCCUCCUCGCUGGCGCCGGCUGGGCAACAUUCCGAGGGGACCGUCCCCUCGGUAACGGCGAAUGGGACCCA [G1A U72C]
Result: 0.107

Origin of the recorded values: the RNAGym collection of RNA variant scans (doi:10.7554/elife.80360)
